- Test system: NCI/ADR-RES
- testSummary: NCI tumour cell line growth inhibition, 48 h
The source made the active and inactive calls. No stated cut-off is given here; in the data, active = GI50 up to about 1.1 µM and inactive = higher.
Outcomes you can answer with include only these: active, inactive

Consider the following illustrative entries.
>  <compound>
N/C(S)=N/N=C/c1ncccc1O

>  <group>
active

$$$$
>  <compound>
O=C(c1ccccc1)c1ccc2[nH]c(-c3c(Cl)c(Cl)c(Cl)c(Cl)c3C(=O)Nc3ccco3)nc2c1

>  <group>
inactive

$$$$
>  <compound>
CC(C)CC1C(=O)NCCC(NC(=O)C(Cc2ccc(OC(C)(C)C)cc2)NC(=O)OC(C)(C)C)C(=O)NC(Cc2ccccc2)C(=O)NC(Cc2ccccc2)NC1=O (centres undefined)

>  <group>
inactive

$$$$

We now examine a further compound.
In: Outcome? NNC(=O)c1cc(=O)[nH][nH]1
Out: inactive

The reported numbers originate from ChEMBL document CHEMBL1201862.
